# Target: Human complement C1s enzyme (Homo sapiens)
# Construct: purified from human serum, Complement Technology, Inc
# Sequence (P09871 438-688 limits assumed): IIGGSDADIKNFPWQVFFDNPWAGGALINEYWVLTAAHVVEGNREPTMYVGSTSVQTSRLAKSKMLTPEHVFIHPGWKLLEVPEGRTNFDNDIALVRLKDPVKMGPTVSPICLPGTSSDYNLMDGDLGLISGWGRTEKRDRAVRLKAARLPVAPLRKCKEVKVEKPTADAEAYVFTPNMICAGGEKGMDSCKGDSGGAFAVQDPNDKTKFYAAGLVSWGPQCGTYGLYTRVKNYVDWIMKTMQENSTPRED
# Sequence (P09871 16-437 partner limits assumed): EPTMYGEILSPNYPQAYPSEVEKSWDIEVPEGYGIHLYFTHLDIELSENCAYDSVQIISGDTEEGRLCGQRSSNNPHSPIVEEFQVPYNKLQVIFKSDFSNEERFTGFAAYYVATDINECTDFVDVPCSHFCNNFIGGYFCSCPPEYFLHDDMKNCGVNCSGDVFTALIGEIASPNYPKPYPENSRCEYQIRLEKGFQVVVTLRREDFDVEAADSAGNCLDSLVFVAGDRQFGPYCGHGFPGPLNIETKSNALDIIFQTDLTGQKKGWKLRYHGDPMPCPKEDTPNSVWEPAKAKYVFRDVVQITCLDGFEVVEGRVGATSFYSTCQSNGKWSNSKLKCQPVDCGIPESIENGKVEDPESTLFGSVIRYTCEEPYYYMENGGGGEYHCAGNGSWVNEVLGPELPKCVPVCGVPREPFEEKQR
# Experiment: Human C1s enzyme assay
# Condition Context: human complement C1s enzyme 1.16 nM, substrate Z-L-Lys-SBzl, A405; read-out: IC50 (Stars)
pIC50: −log10 of the molar value.
For each record, write down the corresponding pIC50.

stdin: In one line, give reported pIC50 of the entry C[C@@H](Nc1cnc(-c2cccnc2)n(CC(=O)NCc2cc3cnccc3[nH]2)c1=O)c1ccc2oc3ccccc3c2c1 [Compound 335] .
stdout: > 7.00

stdin: In one line, give reported pIC50 of the entry O=C(Cn1c(-c2ccccc2)ncc(NC(=O)C23CC(c4ccccc4)(C2)C3)c1=O)NCc1cc2cnccc2[nH]1 [Compound 243] .
stdout: 6.00 to 7.00

stdin: In one line, give reported pIC50 of the entry O=C(Cn1c(-c2ccccc2)ncc(NCCCC(=O)c2ccc(Oc3ccccc3)cc2)c1=O)NCc1cc2cnccc2[nH]1 [Compound 88] .
stdout: > 7.00

stdin: In one line, give reported pIC50 of the entry Cc1cnc(N[C@@H](C)c2ccc3oc4ccccc4c3c2)c(=O)n1CC(=O)NCc1cc2cnccc2[nH]1 [Compound 316] .
stdout: > 7.00

stdin: In one line, give reported pIC50 of the entry O=C(Cn1c(-c2ccccc2)ncc(NC(=O)c2ccc(-c3cnco3)cc2)c1=O)NCc1cc2cnccc2[nH]1 [Compound 93] .
stdout: > 7.00

stdin: In one line, give reported pIC50 of the entry O=C(Cn1c(-c2ccccc2)ncc(NC(=O)c2ccc(Oc3ccccc3Cl)cc2)c1=O)NCc1cc2cnccc2[nH]1 [Compound 72] .
stdout: > 7.00

stdin: In one line, give reported pIC50 of the entry O=C(Cn1c(-c2ccccc2)ncc(-c2nc3c(s2)CCCC3)c1=O)NCc1cc2cnccc2[nH]1 [Compound 30] .
stdout: < 6.00

Where these numbers come from: patent US20260184707A1
